Target: T1, human CD86-murine Ig fusion protein (human)
T1 construct: Bought (Ancell #509-820); also called hCD86-mIg
T1 chain: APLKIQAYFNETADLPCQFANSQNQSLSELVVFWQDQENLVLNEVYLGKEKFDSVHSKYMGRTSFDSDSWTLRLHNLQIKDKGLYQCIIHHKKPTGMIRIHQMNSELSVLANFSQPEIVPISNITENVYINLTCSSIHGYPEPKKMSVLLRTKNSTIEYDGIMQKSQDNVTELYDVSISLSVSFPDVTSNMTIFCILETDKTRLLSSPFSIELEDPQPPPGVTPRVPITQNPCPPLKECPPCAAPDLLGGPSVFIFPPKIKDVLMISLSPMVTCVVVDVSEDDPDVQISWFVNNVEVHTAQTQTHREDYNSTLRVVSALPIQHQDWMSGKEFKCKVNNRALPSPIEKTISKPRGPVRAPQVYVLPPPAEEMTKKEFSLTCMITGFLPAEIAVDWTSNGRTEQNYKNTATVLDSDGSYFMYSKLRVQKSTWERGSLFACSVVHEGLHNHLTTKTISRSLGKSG
Assay: SPR Biacore, hCD86-mIg captured
observationType: Binding Avidity (Relative to Orencia)

binder | observationType | value
D3-1-IgG2 (Fc fusion) MHVAQPAVVLASSRGIASFVCEYASPGKANEIRVTVLRQAGSQVTEVCAMTYMKGDELTFLDDPSCTGTFSGNQVNLTIQGLRAADTGLYICKVELMYPPPYYLGFGNGTQIYVIDPEPCPDSDERKCCVECPPCPAPPVAGPSVFLFPPKPKDTLMISRTPEVTCVVVDVSHEDPEVQFNWYVDGVEVHNAKTKPREEQFNSTFRVVSVLTVVHQDWLNGKEYKCKVSNKGLPAPIEKTISKTKGQPREPQVYTLPPSREEMTKNQVSLTCLVKGFYPSDIAVEWESNGQPENNYKTTPPMLDSDGSFFLYSKLTVDKSRWQQGNVFSCSVMHEALHNHYTQKSLSLSPG | Binding Avidity (Relative to Orencia) | > 40 fold
D3-7-IgG2 (Fc fusion, also called D3-07) MHVAQPAVVLASSRGIASFVCEYESPGKANEIRVTVLRQAGSQVTEVCAMTYMKGNELTFLDDPSCTGTFSGNQVNLTIQGLRAADTGLYICKVELMYPPPYYLGFGNGTQIYVIDPEPCPDSDERKCCVECPPCPAPPVAGPSVFLFPPKPKDTLMISRTPEVTCVVVDVSHEDPEVQFNWYVDGVEVHNAKTKPREEQFNSTFRVVSVLTVVHQDWLNGKEYKCKVSNKGLPAPIEKTISKTKGQPREPQVYTLPPSREEMTKNQVSLTCLVKGFYPSDIAVEWESNGQPENNYKTTPPMLDSDGSFFLYSKLTVDKSRWQQGNVFSCSVMHEALHNHYTQKSLSLSPG | Binding Avidity (Relative to Orencia) | > 40 fold
D29-IgG2 (Fc fusion) MHVAQPAVVLASSRGIASFVCEYEAPHKADEIRVTVLRKADSQVTEVCAMTYMMEDELTFLDDPSCTGTFSGNQVNLTIQGLRAMDTGLYICKVELMYPPPYYLGLGNGTQIYVIDPEPCPDSDERKCCVECPPCPAPPVAGPSVFLFPPKPKDTLMISRTPEVTCVVVDVSHEDPEVQFNWYVDGVEVHNAKTKPREEQFNSTFRVVSVLTVVHQDWLNGKEYKCKVSNKGLPAPIEKTISKTKGQPREPQVYTLPPSREEMTKNQVSLTCLVKGFYPSDIAVEWESNGQPENNYKTTPPMLDSDGSFFLYSKLTVDKSRWQQGNVFSCSVMHEALHNHYTQKSLSLSPG | Binding Avidity (Relative to Orencia) | > 40 fold
D3-32-IgG2 (Fc fusion) MHVAQPAVVLASSRGIASFVCEYESPGKANEIRVTVLRKADSQVTEVCAMTYMKGDELTFLDDPSCTGTFSGNQVNLTIQGLRAADTGLYICKVELMYPPPYYLGIGNGTQIYVIDPEPCPDSDERKCCVECPPCPAPPVAGPSVFLFPPKPKDTLMISRTPEVTCVVVDVSHEDPEVQFNWYVDGVEVHNAKTKPREEQFNSTFRVVSVLTVVHQDWLNGKEYKCKVSNKGLPAPIEKTISKTKGQPREPQVYTLPPSREEMTKNQVSLTCLVKGFYPSDIAVEWESNGQPENNYKTTPPMLDSDGSFFLYSKLTVDKSRWQQGNVFSCSVMHEALHNHYTQKSLSLSPG | Binding Avidity (Relative to Orencia) | > 40 fold
D3-76-IgG2 (Fc fusion) MHVAQPAVVLASSRGIASFVCEYASPGKANEVRVTVLRQADSQVTEVCAMTYMKEDELTFLDDPICTGTFSGNQVNLTIQGLRAMDTGLYICKVELMYPPPYYLGIGNGTQIYVIDPEPCPDSDERKCCVECPPCPAPPVAGPSVFLFPPKPKDTLMISRTPEVTCVVVDVSHEDPEVQFNWYVDGVEVHNAKTKPREEQFNSTFRVVSVLTVVHQDWLNGKEYKCKVSNKGLPAPIEKTISKTKGQPREPQVYTLPPSREEMTKNQVSLTCLVKGFYPSDIAVEWESNGQPENNYKTTPPMLDSDGSFFLYSKLTVDKSRWQQGNVFSCSVMHEALHNHYTQKSLSLSPG | Binding Avidity (Relative to Orencia) | > 40 fold
D3-12-IgG2 (Fc fusion) MHVAQPAVVLASSRGIASFVCEYESPGKANEIRVTVLRQAGSQVTEVCAMTYMKGDELTFLDDPSCTGTFSGNQVNLTIQGLRAADTGLYICKVELMYPPPYYLGIGNGTQIYVIDPEPCPDSDERKCCVECPPCPAPPVAGPSVFLFPPKPKDTLMISRTPEVTCVVVDVSHEDPEVQFNWYVDGVEVHNAKTKPREEQFNSTFRVVSVLTVVHQDWLNGKEYKCKVSNKGLPAPIEKTISKTKGQPREPQVYTLPPSREEMTKNQVSLTCLVKGFYPSDIAVEWESNGQPENNYKTTPPMLDSDGSFFLYSKLTVDKSRWQQGNVFSCSVMHEALHNHYTQKSLSLSPG | Binding Avidity (Relative to Orencia) | > 40 fold
D3-4-IgG2 (Fc fusion, also called D3-04-IgG2) MHVAQPAVVLASSRGIASFVCEYESPGKANEIRVTVLRQADSQVTEVCAMTYMKGDELTFLDDPSCTGTFSGNQVNLTIQGLRAADTGLYICKVELMYPPPYYLGFGNGTQIYVIDPEPCPDSDERKCCVECPPCPAPPVAGPSVFLFPPKPKDTLMISRTPEVTCVVVDVSHEDPEVQFNWYVDGVEVHNAKTKPREEQFNSTFRVVSVLTVVHQDWLNGKEYKCKVSNKGLPAPIEKTISKTKGQPREPQVYTLPPSREEMTKNQVSLTCLVKGFYPSDIAVEWESNGQPENNYKTTPPMLDSDGSFFLYSKLTVDKSRWQQGNVFSCSVMHEALHNHYTQKSLSLSPG | Binding Avidity (Relative to Orencia) | > 40 fold

These measurements were taken from patent US20110177071A1.
